Entries annotated with measured pIC50
target: pig pancreas lipase (Sus scrofa); test: Inhibition of pancreas lipase, titrimetric registration of oleic acid liberated in the cleavage of triolein; assay type: biochemical
Notebook: values listed as pIC50 are -log10 of the concentration (mol/L).

Study these solved cases before continuing.
| compound | measuredQuantity | observed |
| --- | --- | --- |
| CCCCCCCC/C=C\CCCCCCC[C@@H](C[C@@H]1OC(=O)[C@H]1CC)OC(=O)[C@H](CC(C)C)NC=O (single isomer, unassigned) [Example 2, 23a] | pIC50 | 7.17 |
| C=CCC[C@@H](C[C@@H]1OC(=O)[C@H]1CCCCCCCCCC)OC(=O)[C@H](CC(C)C)NC=O | pIC50 | 6.54 |
| CCCCCC[C@@H]1C(=O)O[C@H]1C[C@H](CCCC)OC(=O)[C@H](Cc1ccccc1)NC=O | pIC50 | 5.64 |

[Q] pIC50 of C=CC[C@@H]1C(=O)O[C@H]1CC(CCCCCCCCCCC)OC(=O)[C@H](CC(C)C)NC=O (mixture of isomers) on pig pancreas lipase (Sus scrofa)?
[A] 7.48

====

target: pig pancreas lipase (Sus scrofa, UniProt P00591); test: Inhibition of pancreas lipase, titrimetric registration of oleic acid liberated in the cleavage of triolein; assay type: biochemical; details: pig pancreas lipase 100 μg (175 U), triolein substrate, pH 8, 10 minutes; concentration at which lipase activity was inhibited to half of the maximum; read-out: IC50 (converted)
Sequence (P00591 whole entry): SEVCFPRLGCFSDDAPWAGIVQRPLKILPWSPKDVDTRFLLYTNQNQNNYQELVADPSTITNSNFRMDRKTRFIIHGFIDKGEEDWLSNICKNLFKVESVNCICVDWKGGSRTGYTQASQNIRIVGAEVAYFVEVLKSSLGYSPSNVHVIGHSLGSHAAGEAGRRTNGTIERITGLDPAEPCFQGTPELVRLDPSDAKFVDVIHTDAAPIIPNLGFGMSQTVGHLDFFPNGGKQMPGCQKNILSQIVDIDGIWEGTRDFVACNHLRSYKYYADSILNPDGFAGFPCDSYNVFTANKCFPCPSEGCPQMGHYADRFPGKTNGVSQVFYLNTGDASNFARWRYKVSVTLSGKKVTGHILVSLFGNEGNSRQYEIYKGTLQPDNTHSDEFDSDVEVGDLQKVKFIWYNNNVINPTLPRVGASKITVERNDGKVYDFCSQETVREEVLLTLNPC
Reported values of IC50 for individual entries
Quick reminder: number only, in µM, skip the unit.

Below are worked cases with known answers.
| compound | IC50, µM |
| --- | --- |
| CCCCCCCCCCC[C@H](O)C[C@@H]1OC(=O)[C@H]1CCCCCC (relative stereo) | 240 |
| CCCCCCCCCCCC(C[C@@H]1OC(=O)[C@H]1CCCCCC)OC(=O)[C@@H](N)CC(C)C (relative stereo) | 32.1 |

Switching to the query record.
[Q] // lookup IC50 | system=pig pancreas lipase (Sus scrofa, UniProt P00591) | key= `CCCCC/C=C\C/C=C\CCCCCCC[C@@H](C[C@@H]1OC(=O)[C@H]1CC)OC(=O)[C@H](CC(C)C)NC=O`
[A] 0.0385
